- systemUnderTest: UniProt:P50406
- assayDetails: 5-HT6 binding affinity, [3H]-LSD displacement in membranes of Hela cells
The entries below come with measured pKi values attached.
Keep in mind that pKi stands for -log10 of concentration in molar terms.

chemicalStructure | systemUnderTest | pKi
COc1ccc(S(=O)(=O)n2cc(C(C)=NNC(=N)N)c3ccccc32)cc1OC | UniProt:P50406 | 7.92

// Input: CC(=NNC(=N)N)c1cn(S(=O)(=O)c2cccc(Br)c2)c2ccccc12 . Output its pKi only.
7.59

Annotate the molecule CC(=NNC(=N)N)c1cn(S(=O)(=O)c2cn(C)cn2)c2ccccc12 with its measured pKi.
7.34

Note down pKi recorded for CCC(=NNC(=N)N)c1cn(S(=O)(=O)c2ccc(N)cc2)c2ccc(Cl)cc12
8.05

Fill in reported pKi for this entry: CC(C)CC(=NNC(=N)N)c1cn(S(=O)(=O)c2ccccc2)c2ccccc12
7.92

Identify the reported pKi for the following entry. CC(=NNC(=N)N)c1cn(S(=O)(=O)c2ccccc2)c2ccccc12
8.15

---

- systemUnderTest: human cloned 5-HT6 receptors (Homo sapiens)
- Construct: expressed in transfected cells; host or cells: Hela cells
- assayDetails: 5-HT6 binding affinity, [3H]-LSD displacement in membranes of Hela cells
- statedConditions: test compound dose 1000 nM; [3H]-LSD 3.0 nM; read-out: % Inhibition
metric: inhibition at 1 µM (%)
// units = %; emit number, no label

chemicalStructure | inhibition at 1 µM / %
CC(C)CC(=NNC(=N)N)c1cn(S(=O)(=O)c2ccccc2)c2ccccc12 | 98.5
CCCCC(=NNC(=N)N)c1cn(S(=O)(=O)c2ccc3ccccc3c2)c2ccc(Cl)cc12 | 46.9

Switching to the query record.
Item CCCCC(=NNC(=N)N)c1cn(S(C)(=O)=O)c2cc(F)ccc12 : provide inhibition at 1 µM
77.4

---

Catalogue of pKi readings, one per entry.
- systemUnderTest: human cloned 5-HT6 receptors (Homo sapiens, UniProt P50406)
- Sequence (P50406 whole entry): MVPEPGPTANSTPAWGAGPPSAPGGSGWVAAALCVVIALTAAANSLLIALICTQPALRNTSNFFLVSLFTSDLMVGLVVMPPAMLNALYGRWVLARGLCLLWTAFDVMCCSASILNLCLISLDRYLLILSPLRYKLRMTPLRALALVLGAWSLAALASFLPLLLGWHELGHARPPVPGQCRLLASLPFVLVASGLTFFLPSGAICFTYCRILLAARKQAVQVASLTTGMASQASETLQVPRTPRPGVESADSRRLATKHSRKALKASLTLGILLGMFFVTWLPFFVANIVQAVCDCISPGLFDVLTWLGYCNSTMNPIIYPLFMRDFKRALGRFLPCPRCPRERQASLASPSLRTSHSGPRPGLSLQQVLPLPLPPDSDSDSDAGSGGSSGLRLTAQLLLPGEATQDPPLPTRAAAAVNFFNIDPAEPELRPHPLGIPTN
- assayDetails: 5-HT6 binding affinity, [3H]-LSD displacement in membranes of Hela cells
Note on pKi: it is the negative log10 of concentration, concentration in mol/L.

Give the measured pKi for CC(=NNC(=N)N)c1cn(S(=O)(=O)c2ccc(Br)s2)c2ccccc12
7.72

Please give measured pKi of the following entry: N=C(N)NN=C(Cc1ccccc1)c1cn(S(=O)(=O)c2ccccc2)c2ccccc12
7.96

Name the recorded pKi of the molecule listed here: CC(=NNC(=N)N)c1cn(S(=O)(=O)c2ccc(F)cc2)c2ccccc12
7.48

Supply recorded pKi for CC(=NNC(=N)N)c1cn(S(=O)(=O)c2cccc3nonc23)c2ccccc12 here.
7.82

Annotate the molecule CCC(=NNC(=N)N)c1cn(S(=O)(=O)c2ccc(N)cc2)c2ccc(F)cc12 with its measured pKi.
8.70

Look up and report measured pKi for this entry: CCC(=NNC(=N)N)c1cn(S(=O)(=O)c2ccc3ccccc3c2)c2ccc(Cl)cc12
7.00

Annotate the molecule CC(=NNC(=N)N)c1cn(S(=O)(=O)c2ccccc2Br)c2ccccc12 with its measured pKi.
7.89

Using the record for CCCCCNC(=N)NN=C(C)c1cn(S(=O)(=O)c2ccccc2)c2ccccc12 , state its measured pKi.
7.92

// Input: CC(=NNC(=N)N)c1cn(S(=O)(=O)c2sc(N)nc2C)c2ccccc12 . Output its pKi only.
8.10

Assign pKi to the following record: CCC(=NNC(=N)N)c1cn(S(=O)(=O)c2ccccc2)c2ccc(F)cc12
8.15

Output measured pKi for this item: CCC(=NNC(=N)N)c1cn(S(=O)(=O)c2ccc3ccccc3c2)c2ccc(F)cc12
7.07

Name the recorded pKi of the molecule listed here: CC(=NNC(=N)N)c1cn(S(=O)(=O)c2ccc(N)cc2)c2ccccc12
8.70
